target: the molecule itself; test: SEC; analytical gel filtration (AKTA prime Plus); 500 ug protein injected; 50 mM sodium phosphate, 200 mM sodium chloride, pH 6.8; molecular weight from marker proteins; self-association, dimer against monomer
observable: binding result

HlyU_Vc A66S (natural protein, source: E. coli BL21 (DE3), purified (Ni-NTA); not shown: His6, N-terminal, cleaved) MPYLKGAPMNLQEMEKNSAKAVVLLKAMANERRLQILCMLLDNELSVGELSSRLELSQSALSQHLSWLRRDGLVNTRKEAQTVFYTLSSTEVKAMIELLHRLYCQANQ ... binds
HlyU_Vc L98D (natural protein, source: E. coli BL21 (DE3), purified (Ni-NTA); not shown: His6, N-terminal, cleaved) MPYLKGAPMNLQEMEKNSAKAVVLLKAMANERRLQILCMLLDNELSVGELSSRLELSQSALSQHLAWLRRDGLVNTRKEAQTVFYTLSSTEVKAMIEDLHRLYCQANQ ... binds
HlyU_Vc W67A (natural protein, source: E. coli BL21 (DE3), purified (Ni-NTA); not shown: His6, N-terminal, cleaved) MPYLKGAPMNLQEMEKNSAKAVVLLKAMANERRLQILCMLLDNELSVGELSSRLELSQSALSQHLAALRRDGLVNTRKEAQTVFYTLSSTEVKAMIELLHRLYCQANQ ... binds
HlyU_Vc Y85A (natural protein, source: E. coli BL21 (DE3), purified (Ni-NTA); not shown: His6, N-terminal, cleaved) MPYLKGAPMNLQEMEKNSAKAVVLLKAMANERRLQILCMLLDNELSVGELSSRLELSQSALSQHLAWLRRDGLVNTRKEAQTVFATLSSTEVKAMIELLHRLYCQANQ ... binds
HlyU_Vc H64A (natural protein, source: E. coli BL21 (DE3), purified (Ni-NTA); not shown: His6, N-terminal, cleaved) MPYLKGAPMNLQEMEKNSAKAVVLLKAMANERRLQILCMLLDNELSVGELSSRLELSQSALSQALAWLRRDGLVNTRKEAQTVFYTLSSTEVKAMIELLHRLYCQANQ ... binds

Consider the record given below.
Recorded binding result for HlyU_Vc L65A (natural protein, source: E. coli BL21 (DE3), purified (Ni-NTA); not shown: His6, N-terminal, cleaved) MPYLKGAPMNLQEMEKNSAKAVVLLKAMANERRLQILCMLLDNELSVGELSSRLELSQSALSQHAAWLRRDGLVNTRKEAQTVFYTLSSTEVKAMIELLHRLYCQANQ , please?
binds
